// provenance: PubChem BioAssay (NCI)

System: HCC-2998 colon
testDescription: NCI-60 one-dose screen, 48 h (100 = growth as untreated, 0 = no growth, -100 = all killed)
assayContext: 10 µM
The panel holds about 83,000 compounds, 20% with a hit somewhere; the sample as a whole holds those more often.
Binary classification by growth, with -60% as an inclusive lower bound for satisfied; all other cases are not satisfied.

Completed entries (count: 2):
> print(dat)
                                querysmiles      classname
1  Nc1n[nH]c2cccc(C#Cc3cccc(NC(=O)Nc4cc(C(F)(F)F)cc(C(F)(F)F)c4)c3)c12  not satisfied
2  CC(=O)c1ccc(NC(=O)NCn2c(=O)[nH]c3ccccc3c2=O)cc1      satisfied

Hi team, for `COc1ccc(-c2cc(C(=O)N=Nc3c(O)[nH]c4ccc(F)cc34)c3ccccc3n2)cc1` , is the recorded growth at or above -60%?
satisfied

Quick check: does `CN(C)c1nc(NCCNS(=O)(=O)c2ccc(C(=O)/C=C/c3ccccc3)cc2)nc(Nc2ccc(F)cc2)n1` have growth greater than or equal to -60%?
not satisfied

Hi, just wondering whether `CC1(C)CC[C@]2(C(=O)N3CCOCC3)CC[C@]3(C)C(=CC[C@@H]4[C@@]5(C)CC[C@H](NCO)C(C)(C)[C@@H]5CC[C@]43C)[C@H]2C1` shows growth of -60% or higher.
not satisfied

Hello, I need to know if `C#CCNC(=O)[C@]12CCC(C)(C)C[C@H]1C1=CC[C@@H]3[C@@](C)(CCC#N)[C@H](C(=C)C)CC[C@@]3(C)[C@]1(C)CC2` has measured growth not below -60%. Thanks!
satisfied

Could you please find out whether `N#Cc1c(NC(=O)c2cccc(C(F)(F)F)c2)sc2c1CCC(O)=C2` has growth that meets -60% or exceeds it?
satisfied

====

Tested on: DU-145 prostate
testDescription: NCI-60 one-dose screen, 48 h
assayContext: 10 µM
Compounds without any hit were thinned out: in the full panel of roughly 83,000, 20% have a hit. Calls of active or inactive are those of the source. How the source made its calls: active means growth percent below 10; inactive means the rest.
Result category, one only: active, inactive

compound	targetUnderTest	className
CC(=O)Nc1ccc(-n2cnc3cc(-c4ccc(NS(C)(=O)=O)cc4)ccc32)cc1	DU-145 prostate	inactive
COc1ccc(C(=O)NC(=S)N2CCN(c3ncnc4c3cnn4-c3ccccc3)CC2)cc1	DU-145 prostate	inactive
CC1=C2C(=C[C@@](C)(CO)[C@@H]2O)/C(=N\N)[C@](C)(O)C12CC2	DU-145 prostate	active
C=C1CCC2C3(C)COC(c4cc(F)cc(F)c4)OC3CCC2(C)C1C/C=C1/C(=O)OCC1O (configuration not stated)	DU-145 prostate	active
CN(C)c1nc(NCCNS(=O)(=O)c2ccc(C(=O)/C=C/c3ccccc3)cc2)nc(Nc2ccc(F)cc2)n1	DU-145 prostate	inactive
Nc1cccnc1/C=N/NC(=S)NCCNC(=O)c1ccc(-n2nc(-c3ccccc3O)nc2-c2ccccc2O)cc1	DU-145 prostate	inactive
COc1ccc(C2N(c3ccc(Br)cc3)N=C(C(C)=O)N2[C@H]2[C@H](OC(C)=O)O[C@H](COC(C)=O)[C@@H](OC(C)=O)[C@@H]2OC(C)=O)cc1 (some centres not stated)	DU-145 prostate	inactive
Cc1ccc(-c2nc(Nc3ccc(S(N)(=O)=O)cc3)c3ccccc3n2)cc1	DU-145 prostate	inactive

Assay result, entry `CN1CCc2c(sc3ncnc(N/N=C/c4cn(-c5ccccc5)nc4-c4ccc(Br)cc4)c23)C1` — outcome?
inactive

Record request — test call for `O=c1oc2ccc(-c3ccc(F)cc3F)cc2c(=O)n1-c1ccc(F)cc1`
inactive

====

growth reference
Test system: UACC-62 melanoma
testDescription: NCI-60 one-dose screen, 48 h (100 = growth as untreated, 0 = no growth, -100 = all killed)
assayContext: 10 µM
About 83,000 compounds went through this panel and 20% of them were active in at least one assay; those are over-represented in the sample as a whole.
Field format: number, assumed %, no unit text.

These solved cases illustrate the format of a correct answer.
> print(dat)
                                   molecule  unitannotation  observedresult
1  C=C(C)[C@@H]1CC[C@]2(C)[C@H](CC=C3[C@@H]4CC(C)(C)CC[C@]4(C(=O)N4CCOCC4)CC[C@]32C)[C@@]1(C)CCCN               %           -93.8
2   CN(CCF)c1ccc(/C=C/C(=O)c2ccc(N)cc2O)cc1               %            90.1
3  O=C(CSc1ccc(-c2ccc(Cl)cc2)nn1)Nc1ccc(Cl)c(C(F)(F)F)c1               %            32.7
4        Cn1cc(/C=N/Nc2cccc(Cl)n2)c2ccccc21               %            67.7
5  CCCCCc1ccc(S(=O)(=O)N(C(C)=O)c2cc(-c3csc(N(C)C(C)=O)n3)ccc2N2CCN(C)CC2)cc1               %           -88.2

Please look up its growth: `Cc1ccc(C(C)C)cc1NC(=O)c1ccccc1N(C)C`
63.1

Could you share which growth value was measured for `N#Cc1c(NC(=O)c2ccc(C(F)(F)F)c(Cl)c2)sc2c1CCC(=O)C2` ?
-78.9

I'd like to know its growth. The molecule in question is `O=c1c2ccccc2nc(COc2ccccc2)n1/N=C/c1ccc(N2CCOCC2)cc1`
69.4

Look up growth: COc1ccc(/C=C/C(=O)c2ccc(NC(=O)CN3C(=O)NC(C)(c4ccccc4)C3=O)cc2)cc1 (configuration not stated)
50

Entry under review: `Cc1cccc(NC(=O)CSc2nc3ccc(F)cc3c(=O)n2-c2ccc(Cl)cc2)c1C` . Reported growth?
80.8

====

Test system: SNB-75 CNS
testDescription: NCI-60 one-dose screen, 48 h
assayContext: 10 µM
About 83,000 compounds went through this panel and 20% of them were active in at least one assay; those are over-represented in the sample as a whole. The source made the active and inactive calls. Rule for the calls: active = growth percent below 10; inactive = the rest.
Hello, when you answer, please use one of the following outcomes: active, inactive

As a guide, the following entries are already answered.
compound	targetUnderTest	className
COc1cc(NC(=O)CSc2nnc(-c3ccc4nc(-c5ccc(Cl)cc5)[nH]c4c3)o2)cc(OC)c1OC	SNB-75 CNS	inactive
O=C1CCC(N2Cc3c(NCc4ccc(-c5ccccc5)cc4)cccc3C2=O)C(=O)N1 (stereo not drawn)	SNB-75 CNS	inactive
O=c1[nH]c2ccc(Cl)cc2cc1CSc1ccc(Nc2nccc(-c3ccc(Cl)cc3)n2)cc1	SNB-75 CNS	inactive
CCOc1ccc(/C=N/NC(=O)Cn2nc(Cc3ccccc3)c3onc(C)c3c2=O)cc1	SNB-75 CNS	active
COc1ccc(C2N(c3ccc(Br)cc3)N=C(C(C)=O)N2[C@H]2[C@H](OC(C)=O)O[C@H](COC(C)=O)[C@@H](OC(C)=O)[C@@H]2OC(C)=O)cc1 (stereo partly drawn)	SNB-75 CNS	inactive
COc1ccccc1[C@H]1C(C(=O)c2ccc(O)cc2)C2(N[C@@H]1c1ccccc1)C(=O)Nc1ccc(Br)cc12 (stereo partly drawn)	SNB-75 CNS	inactive
O=C(Nc1cccc(C(F)(F)F)c1)c1cncc(C#Cc2cnc3ccc(N4CCOCC4)nn23)c1	SNB-75 CNS	active

Then there is this compound:
Kindly provide the recorded test outcome for the following compound: `CCCSc1nc(NC2CC2)c(C#N)c(-c2ccc(OC)cc2)n1`
inactive

====

Tested on: LOX IMVI melanoma
testDescription: NCI-60 one-dose screen, 48 h
assayContext: 10 µM
About 83,000 compounds went through this panel and 20% of them were active in at least one assay; those are over-represented in the sample as a whole. Activity calls are given as the source filed them. The calls were made as follows: active = growth percent below 10; inactive = the rest.
Give your call using only these classes: Y for active, N for inactive

Solved entries (count: 6):
compound	className
COc1cc2c3c(n(CCCN4CCOCC4)c(=O)c2cc1OC)-c1nc2c(cc1C3=O)OCO2	Y
COc1cccc(/C=N/NC(=O)c2ccc3nc(-c4ccc(Cl)cc4)[nH]c3c2)c1O	Y
COC[C@@H](CC(C)C)N=C1NC(=O)/C(=C/c2ccc3ncsc3c2)N1	Y
Cc1nc2c(cnn2-c2ccccc2)c(=O)n1-c1ccc(NC(=O)c2ccc(F)cc2)cc1	N
CN1C(=O)/C(=C/c2ccc3ncsc3c2)NC1=NC12CC3CC(CC(O)(C3)C1)C2	Y
COc1cc2c3c(n(CCCn4ccnc4)c(=O)c2cc1OC)-c1nc2c(cc1C3=O)OCO2	Y

Recorded test call requested for COc1ccc(C2N(c3ccc(Br)cc3)N=C(C(C)=O)N2[C@H]2[C@H](OC(C)=O)O[C@H](COC(C)=O)[C@@H](OC(C)=O)[C@@H]2OC(C)=O)cc1 (some centres undefined)
N

GET /call?item= `CN(C)c1ccc(/C=C/c2nc3ccccc3c(=O)n2CC(=O)Nc2ccccc2)cc1` returns the recorded outcome of this test.
Y

Hey, what did the test say about COc1cc(C2CC(c3ccc(C)cc3)=Nc3c(N)nc(N)nc3N2)ccc1Oc1nc(Nc2ccc(F)cc2)nc(N(C)C)n1 (centres undefined) ?
Y

Assay result, entry `CCCn1c(=O)c2[nH]c(-c3ccc(OCc4nc5ccc(C#N)cc5[nH]4)cc3)nc2n(CCC)c1=O` — outcome?
N

Assay outcome for `CN1CCN(c2ccc(Nc3nc(NCCCNC(=O)c4ccc(Cl)cc4)c4sccc4n3)cc2)CC1` : what was it?
N

Look up the recorded call for `O=C(CSc1nnc(-c2c[nH]c3ccccc23)n1-c1ccccc1)Nc1ccc(C(=O)/C=C/c2ccc(Br)cc2)cc1` in this test.
N
